Numbers sourced from patent US8999942B2.

test system: Pseudomonas aeruginosa ATCC 27853; assay: MIC, broth macrodilution (CLSI), P. aeruginosa ATCC 27853; type: cell-based
A collection of compounds and their measured Minimal Inhibitory Concentration (MIC)

Some solved cases for reference:
Compound	Minimal Inhibitory Concentration (MIC)
CCCCCCNC(=O)OCC1OC(OC2C(N)CC(N)C(OC3OC(CN)C(OC(=O)NCCCCCC)C(OC(=O)NCCCCCC)C3OC(=O)NCCCCCC)C2OC(=O)NCCCCCC)C(OC(=O)NCCCCCC)C(N)C1OC(=O)NCCCCCC.O=C(O)C(F)(F)F.O=C(O)C(F)(F)F.O=C(O)C(F)(F)F.O=C(O)C(F)(F)F (stereo not shown)	128 µg/mL
CN(C)c1ccc(NC(=O)OCC2OC(OC3C(N)CC(N)C(OC4OC(CN)C(OC(=O)Nc5ccc(N(C)C)cc5)C(OC(=O)Nc5ccc(N(C)C)cc5)C4OC(=O)Nc4ccc(N(C)C)cc4)C3OC(=O)Nc3ccc(N(C)C)cc3)C(OC(=O)Nc3ccc(N(C)C)cc3)C(N)C2OC(=O)Nc2ccc(N(C)C)cc2)cc1.O=C(O)C(F)(F)F.O=C(O)C(F)(F)F.O=C(O)C(F)(F)F.O=C(O)C(F)(F)F.O=C(O)C(F)(F)F.O=C(O)C(F)(F)F.O=C(O)C(F)(F)F.O=C(O)C(F)(F)F.O=C(O)C(F)(F)F.O=C(O)C(F)(F)F.O=C(O)C(F)(F)F (stereo not shown)	>256 µg/mL
NCC1OC(OC2C(N)CC(N)C(OC3OC(COC(=O)Nc4ccccc4)C(OC(=O)Nc4ccccc4)C(N)C3OC(=O)Nc3ccccc3)C2OC(=O)Nc2ccccc2)C(OC(=O)Nc2ccccc2)C(OC(=O)Nc2ccccc2)C1OC(=O)Nc1ccccc1.O=C(O)C(F)(F)F.O=C(O)C(F)(F)F.O=C(O)C(F)(F)F.O=C(O)C(F)(F)F (stereo not shown)	>256 µg/mL

Report Minimal Inhibitory Concentration (MIC) for NCC1OC(OC2C(N)CC(N)C(OC(=O)Nc3ccccc3)C2OC(=O)Nc2ccccc2)C(N)C(OC(=O)Nc2ccccc2)C1OC(=O)Nc1ccccc1.O=C(O)C(F)(F)F.O=C(O)C(F)(F)F.O=C(O)C(F)(F)F.O=C(O)C(F)(F)F (stereo not shown) tested on Pseudomonas aeruginosa ATCC 27853.
128 µg/mL

====

test system: Stenotrophomonas maltophilia (CAN-ICU 62585); test: MIC, broth macrodilution (CLSI), S. maltophilia; type: cell-based; settings: S. maltophilia, footnote CAN-ICU 62584
Measurement label: Minimal Inhibitory Concentration (MIC)

Compound	Minimal Inhibitory Concentration (MIC)
CCCCCCNC(=O)OCC1OC(OC2C(N)CC(N)C(OC3OC(CN)C(OC(=O)NCCCCCC)C(OC(=O)NCCCCCC)C3OC(=O)NCCCCCC)C2OC(=O)NCCCCCC)C(OC(=O)NCCCCCC)C(N)C1OC(=O)NCCCCCC.O=C(O)C(F)(F)F.O=C(O)C(F)(F)F.O=C(O)C(F)(F)F.O=C(O)C(F)(F)F (stereo not shown) [Compound 6]	>256 µg/mL
NCC1OC(OC2C(N)CC(N)C(OC3OC(COC(=O)Nc4ccccc4)C(OC(=O)Nc4ccccc4)C(N)C3OC(=O)Nc3ccccc3)C2OC(=O)Nc2ccccc2)C(OC(=O)Nc2ccccc2)C(OC(=O)Nc2ccccc2)C1OC(=O)Nc1ccccc1.O=C(O)C(F)(F)F.O=C(O)C(F)(F)F.O=C(O)C(F)(F)F.O=C(O)C(F)(F)F (stereo not shown) [Compound 5]	>256 µg/mL
NCC1OC(OC2C(N)CC(N)C(OC3OC(COCc4ccccc4)C(OCc4ccccc4)C(N)C3OCc3ccccc3)C2OCc2ccccc2)C(OCc2ccccc2)C(OCc2ccccc2)C1OCc1ccccc1.O=C(O)C(F)(F)F.O=C(O)C(F)(F)F.O=C(O)C(F)(F)F.O=C(O)C(F)(F)F (stereo not shown) [Compound 15]	>64 µg/mL
CC(C)(C)c1ccc(COCC2OC(OC3C(OCc4ccc(C(C)(C)C)cc4)C(N)CC(N)C3OC3OC(CN)C(OCc4ccc(C(C)(C)C)cc4)C(OCc4ccc(C(C)(C)C)cc4)C3N)C(OCc3ccc(C(C)(C)C)cc3)C2OC2OC(CN)C(OCc3ccc(C(C)(C)C)cc3)C(OCc3ccc(C(C)(C)C)cc3)C2N)cc1.O=C(O)C(F)(F)F.O=C(O)C(F)(F)F.O=C(O)C(F)(F)F.O=C(O)C(F)(F)F.O=C(O)C(F)(F)F.O=C(O)C(F)(F)F (stereo not shown) [Compound 13]	>128 µg/mL
NCC1OC(OC2C(N)CC(N)C(OCc3ccc(Cl)cc3)C2OC2OC(COCc3ccc(Cl)cc3)C(OC3OC(CN)C(OCc4ccc(Cl)cc4)C(OCc4ccc(Cl)cc4)C3N)C2OCc2ccc(Cl)cc2)C(N)C(OCc2ccc(Cl)cc2)C1OCc1ccc(Cl)cc1.O=C(O)C(F)(F)F.O=C(O)C(F)(F)F.O=C(O)C(F)(F)F.O=C(O)C(F)(F)F.O=C(O)C(F)(F)F.O=C(O)C(F)(F)F (stereo not shown) [Compound 12]	>128 µg/mL
COCC1OC(OC2C(N)CC(N)C(OC3OC(CN)C(OC)C(OC)C3OC)C2OC)C(OC)C(N)C1OC.O=C(O)C(F)(F)F.O=C(O)C(F)(F)F.O=C(O)C(F)(F)F.O=C(O)C(F)(F)F (stereo not shown) [Compound 17]	>256 µg/mL

Report Minimal Inhibitory Concentration (MIC) for NCC1OC(OC2C(N)CC(N)C(OC(=O)Nc3ccccc3)C2OC(=O)Nc2ccccc2)C(N)C(OC(=O)Nc2ccccc2)C1OC(=O)Nc1ccccc1.O=C(O)C(F)(F)F.O=C(O)C(F)(F)F.O=C(O)C(F)(F)F.O=C(O)C(F)(F)F (stereo not shown) [Compound 10] tested on Stenotrophomonas maltophilia (CAN-ICU 62585).
64 µg/mL
